pKi for Adenosine receptor A3 (Rattus norvegicus, UniProt P28647) - collated from the literature.
Biological target: Adenosine receptor A3 (Rattus norvegicus, UniProt P28647)
Sequence (P28647 whole entry): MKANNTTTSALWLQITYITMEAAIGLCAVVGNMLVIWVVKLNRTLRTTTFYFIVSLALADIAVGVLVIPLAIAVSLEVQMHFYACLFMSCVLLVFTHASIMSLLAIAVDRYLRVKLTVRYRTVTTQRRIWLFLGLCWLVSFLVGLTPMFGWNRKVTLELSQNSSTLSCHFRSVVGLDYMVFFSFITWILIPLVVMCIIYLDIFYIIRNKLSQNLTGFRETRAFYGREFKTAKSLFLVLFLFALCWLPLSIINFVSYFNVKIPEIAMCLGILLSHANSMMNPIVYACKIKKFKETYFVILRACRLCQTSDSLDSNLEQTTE
pKi: −log10 of the molar value.
property_label: pKi

These recorded examples may help you get a feel for the data.
* Cc1ccc(-c2oc3ccc(Cl)cc3c(=O)c2Cl)c(OC(C)C)c1 | 5.26
* CCNC(=O)[C@H]1O[C@@H](n2cnc3c(NC(=O)c4ccccc4Cl)ncnc32)[C@H](O)[C@@H]1O | 6.12
* O=C(O)c1sc(SCc2ccccc2)c2c1CCCC2=O | 4.38
* CCCCn1c(=O)c2nc(/C=C/C(=O)O)[nH]c2n(CCCC)c1=O | 4.13
* CC(O)[C@@H]1O[C@@H](n2cnc3c(N)ncnc32)[C@H](O)[C@@H]1O (stereo partly specified) | 5.22

(P) CNC(=O)[C@H]1C[C@@H](n2cnc3c(NCc4cccc(I)c4)ncnc32)[C@H](O)[C@@H]1O
(Q) O=C(Nc1nc(-c2ccccc2)c(-c2nc3ccccc3c(=O)n2-c2ccc(Cl)cc2)s1)c1ccco1
Asked: Kindly identify the item with the lower pKi figure among these two: P and Q The response must carry the label of the picked entry.
Given back: P

(A) Cn1c(=O)c2nc(CCCC(=O)O)[nH]c2n(C)c1=S
(B) Cn1c(=O)c2[nH]c(CCCC(=O)O)nc2n(C)c1=O
Asked: Kindly identify the item with the lower pKi figure among these two: A and B The response must carry the label of the picked entry.
Given back: B

(1) CSc1nc(NCc2cccc(I)c2)c2ncn(C[C@H](O)CO)c2n1
(2) CCNC(=O)[C@H]1OC(n2cnc3c(NCCCCCCCCCCNS(=O)(=O)c4cccc5c(N(C)C)cccc45)ncnc32)[C@H](O)[C@@H]1O (stereo partly specified)
Asked: Kindly identify the item with the lower pKi figure among these two: 1 and 2 The response must carry the label of the picked entry.
Given back: 1
(1: 5.07, 2: 5.96)

----------
Target: UniProt P28647
Sequence (P28647 whole entry): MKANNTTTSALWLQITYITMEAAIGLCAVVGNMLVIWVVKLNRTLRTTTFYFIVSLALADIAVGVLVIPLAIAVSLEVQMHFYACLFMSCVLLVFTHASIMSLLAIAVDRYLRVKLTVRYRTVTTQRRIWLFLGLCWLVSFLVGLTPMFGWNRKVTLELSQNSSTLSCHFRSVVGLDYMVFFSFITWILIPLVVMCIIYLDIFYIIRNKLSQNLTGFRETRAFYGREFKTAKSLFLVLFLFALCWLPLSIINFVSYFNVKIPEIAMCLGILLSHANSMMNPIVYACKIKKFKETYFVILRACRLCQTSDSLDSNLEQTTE
Ki for UniProt P28647 - collated from the literature.
property_label: Ki (nM)

- CCCCC#Cc1nc(NC)c2ncn([C@H]3[C@H](O)[C@H](O)[C@@H]4C[C@@H]43)c2n1: 231

(A) CCNC(=O)[C@H]1OC(n2cnc3c(NC(=O)Nc4ccc(NS(=O)(=O)c5cc(C)on5)cc4)ncnc32)[C@H](O)[C@@H]1O (stereo partly drawn)
(B) CCNC(=O)[C@H]1OC(n2cnc3c(NCCCCCCCCNS(=O)(=O)c4cccc5c(N(C)C)cccc45)ncnc32)[C@H](O)[C@@H]1O (stereo partly drawn)
(C) Nc1nc(Cl)nc2c1ncn2[C@@H]1O[C@H](CO)[C@@H](O)[C@@H]1O
(D) CNc1nc(-n2cc(Cc3ccccc3)nn2)nc2c1ncn2[C@@H]1O[C@H](CO)[C@@H](O)[C@H]1O
(E) CCNC(=O)[C@H]1O[C@@H](n2cnc3c(NC(=O)Nc4ccc(NS(=O)(=O)c5ccccn5)cc4)ncnc32)[C@H](O)[C@@H]1O
Asked: Arrange the 5 compounds from largest to smallest Ki. Reply with the labels, ordered as the question asks.
Given back: C, D, B, A, E

----------
pKi for Adenosine receptor A3 (Rattus norvegicus, UniProt P28647) - collated from the literature.
Biological target: Adenosine receptor A3 (Rattus norvegicus, UniProt P28647)
Sequence (P28647 whole entry): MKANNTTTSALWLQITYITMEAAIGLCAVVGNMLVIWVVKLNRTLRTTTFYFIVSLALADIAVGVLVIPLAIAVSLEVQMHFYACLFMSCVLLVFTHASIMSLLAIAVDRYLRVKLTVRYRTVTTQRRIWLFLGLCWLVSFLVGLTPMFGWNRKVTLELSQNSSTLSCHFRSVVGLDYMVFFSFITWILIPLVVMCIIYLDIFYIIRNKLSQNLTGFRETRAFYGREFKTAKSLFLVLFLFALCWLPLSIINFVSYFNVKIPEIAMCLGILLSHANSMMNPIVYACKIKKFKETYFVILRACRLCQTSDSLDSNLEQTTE
pKi: −log10 of the molar value.
property_label: pKi

These recorded examples may help you get a feel for the data.
- CCNC(=O)[C@H]1O[C@@H](n2cnc3c(NC(=O)Nc4ccc(OC)cc4)nc(I)nc32)[C@H](O)[C@@H]1O: 6.60
- CCNC(=O)[C@H]1O[C@@H](n2cnc3c(NC(=O)Nc4ccc(S(=O)(=O)Nc5cc(C)on5)cc4)ncnc32)[C@H](O)[C@@H]1O: 6.81

(P) CCCCC#Cc1nc(N)c2ncn([C@H]3[C@H](O)[C@H](O)[C@@H]4C[C@@H]43)c2n1
(Q) Cc1ccccc1CNc1ncnc2c1ncn2[C@@H]1O[C@H](CO)[C@@H](O)[C@H]1O
Asked: Kindly identify the item with the lower pKi figure among these two: P and Q The response must carry the label of the picked entry.
Given back: P

----------
pKi for Adenosine receptor A3 (Rattus norvegicus, UniProt P28647) - collated from the literature.
pKi: −log10 of the molar value.

Asked: Recall the reported pKi of COc1ccc2c(O)cc(-c3ccccc3)nc2n1 on Adenosine receptor A3 (Rattus norvegicus, UniProt P28647) and write it down.
Given back: < 5.00

Asked: Recall the reported pKi of CCCn1c(=O)[nH]c2nc(-c3ccc(S(=O)(=O)O)cc3)[nH]c2c1=O on Adenosine receptor A3 (Rattus norvegicus, UniProt P28647) and write it down.
Given back: < 5.00

Asked: Recall the reported pKi of COc1ccc(C(=O)Nc2nc(-c3ccccc3)c(-c3nc4ccccc4c(=O)n3-c3ccc(OC)cc3)s2)cc1 on Adenosine receptor A3 (Rattus norvegicus, UniProt P28647) and write it down.
Given back: < 5.00

Asked: Recall the reported pKi of Cc1ccc2c(O)cc(-c3ccc([N+](=O)[O-])cc3)nc2n1 on Adenosine receptor A3 (Rattus norvegicus, UniProt P28647) and write it down.
Given back: < 5.00

Asked: Recall the reported pKi of Nc1ccc2c(O)cc(-c3ccccc3)nc2n1 on Adenosine receptor A3 (Rattus norvegicus, UniProt P28647) and write it down.
Given back: < 5.00

Asked: Recall the reported pKi of CCn1c(-c2ccccc2)cc(=O)c2ccc(C)nc21 on Adenosine receptor A3 (Rattus norvegicus, UniProt P28647) and write it down.
Given back: < 5.00

Asked: Recall the reported pKi of Cc1ccc2c(N3CCNCC3)cc(-c3ccccc3)nc2n1 on Adenosine receptor A3 (Rattus norvegicus, UniProt P28647) and write it down.
Given back: < 5.00

----------
Ki for UniProt P28647 - collated from the literature.
Molecular target: UniProt P28647
Sequence (P28647 whole entry): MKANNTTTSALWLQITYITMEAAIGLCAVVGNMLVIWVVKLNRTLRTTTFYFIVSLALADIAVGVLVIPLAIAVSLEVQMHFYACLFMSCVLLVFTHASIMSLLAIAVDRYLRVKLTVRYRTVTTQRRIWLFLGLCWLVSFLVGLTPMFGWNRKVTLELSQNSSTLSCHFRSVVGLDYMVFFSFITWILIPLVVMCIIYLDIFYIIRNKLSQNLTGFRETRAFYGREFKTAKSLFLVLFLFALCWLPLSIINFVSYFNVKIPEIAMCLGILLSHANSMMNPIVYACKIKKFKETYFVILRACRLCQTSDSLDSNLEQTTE
property_label: Ki (µM)

These recorded examples may help you get a feel for the data.
- CNC(=O)[C@H]1S[C@@H](n2cnc3c(NCc4cccc(I)c4)ncnc32)[C@H](O)[C@@H]1O: 0.00186
- CCCn1c(=O)c2nc(-c3ccc(OCC(=O)NCCNC(=O)CN(CC(=O)O)C(=O)CCC(=O)O)cc3)[nH]c2n(CCC)c1=O: 99.9
- OC[C@H]1O[C@@H](n2cnc3c(NCc4cccnc4)ncnc32)[C@H](O)[C@@H]1O: 0.29

(A) CCNC(=O)[C@H]1OC(n2cnc3c(NCCCNS(=O)(=O)c4cccc5c(N(C)C)cccc45)ncnc32)[C@H](O)[C@@H]1O (stereo partly specified)
(B) O[C@@H]1[C@H](O)CS[C@H]1n1cnc2c(NCc3cccc(Br)c3)ncnc21
Asked: Kindly identify the item with the lower Ki figure among these two: A and B The response must carry the label of the picked entry.
Given back: B
(B: 0.0063 µM, A: 1.8 µM)

(a) CCCn1c(=O)c2[nH]c(-c3ccc(OCC(=O)NCCN)cc3)nc2n(CCC)c1=O
(b) CCCOC(=O)c1c(-c2ccccc2)nc(CC)c(C(=O)SCCCF)c1CCC
(c) C#CC(O)[C@H]1O[C@@H](n2cnc3c(N)ncnc32)[C@H](O)[C@@H]1O (stereo partly specified)
Asked: Form: Sort by [Ki] Order [ ascending ] Reply with the labels, ordered as the question asks.
Given back: b, a, c
(b: 0.156 µM, a: 29 µM, c: 310 µM)
